FYI, the data here is from PubChem BioAssay AID1662.

assay: kanamycin survival loss of SKKanGAS strain – BacTiter-Glo luminescence, streptokinase expression inhibitor project, primary screen (AID 1662);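 also: strain carries kanamycin resistance gene driven by streptokinase promoter and grows in 40 µg/ml kanamycin; loss of luminescence reflects streptokinase promoter inhibition or plain growth inhibition; 0% = median of DMSO wells and 100% = positive control at its reference dose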; conditions: S. pyogenes SKKanGAS, kanamycin growth, 6 h, at 7.5 µM, hits give high values
Hit rate of the full screen: of about 300,000 compounds, about 4,000 (1.3%) were called active. This is one part of a sample in which actives are shown more often than they occur.
Task for the reader: assign each of the following molecules its reported inhibition.
Give a bare numeral; the unit % is implied.

inhibition for Cn1c(NC(=O)c2ccccc2)nc2ccccc21 is 51.2

inhibition for CC(C)c1ccc(NC(=S)NNc2ccc(Cl)c(C(=O)O)c2)cc1 is 5.7

inhibition for Cc1ccc(C(C)C)cc1OCC(=O)Nc1ccccc1N1CCCC1 is 69.7

inhibition for Nc1ccc(S(=O)(=O)Nc2nccc(/C=C/c3ccc(Br)s3)n2)cc1 is 2.22

inhibition for CSc1ccc(S(=O)(=O)Nc2cccc(F)c2)cc1 is 7.04

inhibition for C=Cc1ccc(C(=O)N2CCCC(CCC(=O)N3CCN(c4ccccn4)CC3)C2)cc1 (stereo unspecified) is 4.83

inhibition for O=C(O)CC(Cn1cnnn1)c1ccccc1 (stereo unspecified) is -1.95

inhibition for Cc1ccc(C)c(NC(=S)NNC(=S)Nc2ccc(C(C)C)cc2)c1 is 51.2

inhibition for Cc1ccccc1NC(=O)CNc1ccccc1N1CCCCC1 is 9.21

inhibition for O=C(N/N=C/c1cc([N+](=O)[O-])ccc1O)/C(=C\c1cccs1)NC(=O)c1ccccc1 is 83.5

inhibition for O=C(NC(=S)Nc1ccc(NC(=O)c2cccs2)cc1)c1ccc([N+](=O)[O-])cc1 is 6.3

inhibition for CCc1ccc2c(c1)C1(NN=C(c3ccccc3)S1)C(=O)N2 (stereo unspecified) is 96.7

inhibition for Oc1ccccc1C1=NN(c2ccccc2)C(c2ccccc2)C1 (stereo unspecified) is 93.5

inhibition for N/C(=N/O)c1cccn1Cc1ccccc1[N+](=O)[O-] is 0.341

inhibition for Cc1ccc(-c2nn(-c3ccccc3)cc2/C=C2\SC(=S)N(CCCCCC(=O)O)C2=O)o1 is 103

inhibition for COc1ccc(CCNC2=CC(=O)CC(C)(C)C2)cc1 is -6.22

inhibition for Cc1ccc(S(=O)(=O)NCCc2nnc3ccc(SCc4cccnc4)nn23)cc1 is 4.92

inhibition for CN1C(=O)C2(OCCCO2)c2cc(Cl)ccc21 is -1.28

inhibition for CCOc1ccccc1Nc1ccc2nonc2c1[N+](=O)[O-] is -0.208

inhibition for CCNC(=O)c1cnn(-c2ccccc2)c1-c1ccccc1 is -2.93

inhibition for CN(C)S(=O)(=O)c1cccc(-c2nn(-c3ccccc3)cc2/C=C2\SC(=S)N(CC(=O)O)C2=O)c1 is 25.2

inhibition for O=c1[nH]c(CCl)nc2cc(-c3ccc(Cl)cc3)sc12 is 29.5

inhibition for CCOC(=O)c1ccc2c(c1)nc(SCC(=O)NC(C)C)n2CC is -3.36

inhibition for CC(CNc1ccc([N+](=O)[O-])cc1)NC(=O)c1ccccc1Br (stereo unspecified) is -0.0993

inhibition for CC(=O)Nc1ccc(NC(=S)NC(=O)c2ccc([N+](=O)[O-])c(C)c2)cc1 is -0.0689

inhibition for CC(=O)N1CCOc2ccc(S(=O)(=O)N3CCN(c4cccc(C(F)(F)F)c4)CC3)cc21 is 2.46
